# assay.comment: yeast display, Sf9 membrane polyspecificity reagent, FACS + sequencing; frameworks hold sequencing errors
reported.endpoint: polyreactivity (PSR sort gate)

QVQLVESGGGLVQAGGSLRLSCAASGFTFSIYAMGWSRQAPGKERELVAAIRSSTASTYYADSVKGRFTISRDNAKNTVYLQMNSMKPEDTAVYYCAADTYRTRHIGVKFAFNSWGQGTQVTVSS = high polyreactivity
QVQLVESGGGLVQAGGSLRLSSAASGRIFGHYAMGWYRQAPGKERELVAAISRSGTRTYYADSVKGRFTISRDNAKNTVYLQMNSLKPEDTAVYYCAAYTYKGIYYYWGQGTQVTVSS = high polyreactivity

====

# assay.comment: yeast display, Sf9 membrane polyspecificity reagent, FACS + sequencing; frameworks hold sequencing errors
reported.endpoint: polyreactivity (PSR sort gate)

Reference set (6 entries):
QVQLVDSGGGLVQAGGSLRLSCAASGFTFTQYAMAWYIQAPGKERELVASIRSGGSTKYADSVKGRFTISRDNAKNTVYLQMISLKPEDTAVYYCAKDRYHISFFYQMEFWGQGTQVTVSS = low polyreactivity
QVQLVESGGGLVQAGGSLRLSCAASGRTFRLYAMGWYRQAPGKERELVAAITRGGRTNYADSVKGRFTISRDNAKNTVYLQMNSLKPEDTAVYYCATDLVGAGVKGVRFVGRYRGDYWGQGTQVTVSS = low polyreactivity
LVLLVESGGGLVQAGGSLRLSCAASGFSFACYGMGWYRQAPGNDRELVAALSWSGGRTYYADSVTGRFTISRDNAKNTVYLQMNSLKPEDTAVDYCYAYWNPASKYDFWGQGTQVTVTS = high polyreactivity
QVQLVESGGDLVQAGGSLRLSCAASGITFYVNTMGSYRPAPGKERELVAAIDWTDGGTYYADSVKGRFTISRDNAKNTVYLQMNSLKPEDTAVYYCAREYYWDIKGLYGYLAYDLDYWGQGSQVTVSS = low polyreactivity
QVQLVESGGGLVQAGGSLRLSCAASGITFTGYAMGWYRQAPGKERELVAVISETGGSTYADSVKGRFTISRDNAKNTVYLQMNSLKPEDTAVYYCAARLWWPYSTAWAKMDYWGQGTQVTVSS = low polyreactivity
QVQLVESGGGLVQAGGSLRLSCAASGSIFKLNAMGWYRQAPGKERELVAVINKSGGRTYYADSVKGRFTISRDNAKNTVYLQMNSLKPEDTAVYFCNAVSKLAVNLDYWGQGTQVTVSS = high polyreactivity

Note down polyreactivity (PSR sort gate) recorded for `QVQLVESGGGLVQAGGSLRLSCAASGSIFSGYTMGWYRQAPGKDRELVAGISYRGGSTYYADSVKGRFTISRDNAKNTVYLQMNSLKPEDTAVYYCAALYYRRGSLNYEYWGQGTQVTVSS`
high polyreactivity

Note down polyreactivity (PSR sort gate) recorded for `QVQLVESGGGLVQAGGSLRLSCAASGTIFLANAMGWYRQAPEKERELVAAINSGDNSYYADSVKGRFTISRDNAKITVYLQINSLKPEDTAVYYCAAEYTGYFYAYEYWGQGSQVTVSS`
high polyreactivity

Note down polyreactivity (PSR sort gate) recorded for `QVHLVESGGGLVQAGGSLRLSSAASGSTFYKNAMGWYRQAPGKERELVAGISRRGGRTYYADSVKGRFTISRDNANNTVYLQMNSLKPEDTAVYYCNTGHEEDEYDYWGQGTQVTVSS`
low polyreactivity

Note down polyreactivity (PSR sort gate) recorded for `QVQLVESGGGLVQAGGSLRLSCAASGRIFASNDMGWYRQAPGKEREWVAAITSGGSTYYADSVKGRFTISRDNAKNTVYLQMNSLKPEDTAVYYCAAGSAYYSQRYFAYGYYSWGQGTQVTVSS`
low polyreactivity

Note down polyreactivity (PSR sort gate) recorded for `QVQLVESGGGLVQAGGSLRLSCAASGFTFVKNVMGWYRQAPGKERELVADITRRGGTTYYADSVKGRFTISRDNAKNTVYLQMNSLKPEDTAVYYCATEYWYGIYGYDYWGQGTQVTVSS`
high polyreactivity

Note down polyreactivity (PSR sort gate) recorded for `QVQLVESGGGLVQAGGSLRLSCAASGSTFAPNTMGWYRQAPGKERELVARITSSDGSTTYADSVKGRFTISRDNAKNTVYLQRNSLKPEDTAVYYCAADYGRRWGYDYWGQGTQVTVSS`
low polyreactivity

Note down polyreactivity (PSR sort gate) recorded for `QVQLVESGGGLVQAGGSLRLSCAASGITFPSYVMGWYRQAPGKEREFVAAITGSAGSTYYADSVKGRFTISRDNAKYTVYLQMNSLKPEDTAVYYCAARVRYVNPKYYYWGQGTQVTVSS`
high polyreactivity

Note down polyreactivity (PSR sort gate) recorded for `QVQLVESGGGLVQAGGSLRLSCAASGIIFYDYAMGWYRQAPGKERELVAAISTDAGSTYYADSVKGRFTISRDNAKNTVYLQMNCLKPEDTAVYYCNADELSYYVSWDYEYDYWGQGTQVTVSS`
high polyreactivity

Note down polyreactivity (PSR sort gate) recorded for `QVQLVESGGCLVQAGRSHRLSCAASGRIFYGYALGWYRQAPGKERELVAAITRSSSTYYADSVKGRFTISRDNAKNTVYLQMNSLKPEDTAVYYCNAYSWYGYDYWGQGTQVTVSS`
high polyreactivity

Note down polyreactivity (PSR sort gate) recorded for `QVQLVESGGGLVQAGGSLRLSSAASGSIFPSYAMGWYIQAPGKETELVAAITTSGGNTFYADSVKGRFTISRDNAKNTVYLQMNSLKPEDTAVYYCAADYSPYTVEYDYWGQGTQVTVSS`
low polyreactivity

Note down polyreactivity (PSR sort gate) recorded for `QVQLVESGGGLVQAGGSLRLSCAASGSIFSYYVMGWYRQAPGKERELVAAISYSGGRTYYADSVKGRFTISRDNAKNTVYLQMNSLKPEDTAVYYCAASRRVGEVSYYYWGQGTQVTVSS`
high polyreactivity

Note down polyreactivity (PSR sort gate) recorded for `QVQLVESGGGLVQAGGSLRLSCAASGRTFIGYAMGWYRQAPGKERELVAAISSSGGRTYYADSVKGRFTISRDNAKNTVYLQMNSLKPEDTAVYYCATGSWARDYYYWGQGTQVTVSS`
high polyreactivity

Note down polyreactivity (PSR sort gate) recorded for `QVQLVESVGGLVQAGGSLRLSCAASGRIFYVYVMGWYRPAPGKERELVAAISKRGDNTYYSDSVKGRFTISRDNAKNTVYLQMNSLKPEDTAVYYCNVKRYCGRSDYWGQGTQVTVSS`
high polyreactivity

Note down polyreactivity (PSR sort gate) recorded for `QVQLVESGGGLVQAGGSLRLSCAASGSTFDPYAMGWSRQAPGKEREMVAAISTSVGGTYYADSVKGRFTISRDYAKNTVNLQMNSLKPEDTAVYYCAVDYSDVQAYTSNEEDYWGQGTQVTVSS`
low polyreactivity

Note down polyreactivity (PSR sort gate) recorded for `QVQLQESGGGLVQAGGSLRLSCSASGYISHADEMGWYRQAPGKEHELVASISNGGSTNYADSVKGRFTISRDNAKNTVYLQMNSLKSEDTAVYYCAAWTGQVDIHYYWGQGTQVTVSS`
low polyreactivity

====

# assay.comment: yeast display, Sf9 membrane polyspecificity reagent, FACS + sequencing; frameworks hold sequencing errors
reported.endpoint: polyreactivity (PSR sort gate)

Reference set (4 entries):
QVQLVESGGGLVQAGGSLRLSCAASGSIFPGNAMGWYRQAPGKERELVAAIRGGGSTNYADSVKGRFTISRDNAKNTVYLQMNSLKPEDTAVYYCNADPFTGYDYWGQGTQVTVSS = low polyreactivity
QVQHVESGGGLVQAGGSLRLSCAASGFIFTYYGMGWYRQAPGKERELVAAITWSGASTYYADSVKGRFTISRDNAKNTVYLQMNSLKPEDSAVYYCNAVWDSGIVQSDETVYKYDYWGQGTQVTVSS = low polyreactivity
QVQLVESGGGLVQAGGSLRLSCAASGRTFRYNAMGWYRQAPGKERELVAAISRSGGRTYYADSVKGRFTISRDNAKNTVYLQMNSLKPEDTAVYYCNAAPSWSTSFDSWGQGTQVTVSS = high polyreactivity
QVQLVESGGGLVQAGGSLRLSCAASGLIFSYYAMGWYRQAPGKERELVGAITGSGGSTYYADSVKGRFTISRDNAKNTVYLQMNSLKPEDTAVYYCAAGRYAYTLSRKYDYWGQGTQVTVSS = high polyreactivity

Next:
Note down polyreactivity (PSR sort gate) recorded for `QVQLVESGGGLVQAGGSLRLSCAASGSIFRYYVMGWYRQAPGKERELVAAISSGGRTYYADSVKGRFTISRDNAKNTVYLQMNSLKPEDTAVYYCAAGEPTRGDYWGQGTQVTVSS`
high polyreactivity

====

# assay.comment: yeast display, Sf9 membrane polyspecificity reagent, FACS + sequencing; frameworks hold sequencing errors
reported.endpoint: polyreactivity (PSR sort gate)

Reference set (5 entries):
QVQLVESGGGLVQAGGSLRLSCAASGSIFQVYAMGWYRQAPGKEREFVAAISYSGGGTYYADSVKGRFTISRDNAKNSVYLQMNSLKPEDTAVYYCAADVSGWEYDYWGQGTQVTVSS = low polyreactivity
QVQLVESGGGLVQAGGSLRLSCAASGLTFAYYAMGWYRQPPGKERELVAAITSGDGTNYADSVKGRFTISRDNAKNTVYLQMNSLKPEDTAVYYCATDTWSPGYDYWGQGTQVTVSS = low polyreactivity
QVQLVESGGGLVHAGGSLRLSCSASGRTFRHYAMGWYRQAPGKEREMVAVISWRGTGTYYADSVKGRFTISRDNAKNTVYLQMNSLKPEDTAVYYCATVWGLGYRMNYWGQGTQVTVSS = high polyreactivity
QVQLVESGGGLVQAGGSLRLSCAASGRIFDRYAMGWYRQAPGKERELVAAITSSGGRTYYADSVKGRFTISRDNAKNTVYLQMYSLKPEDTAVYYCAARWYGGYNYWGQGTQVTVSS = high polyreactivity
QVQLVESGGGLVQAGGSLRLSCAASGFTFVSYAMGWYRQAPGKERELVAAISRSGGRTYYADSVKGRFTISRDNAKNTVYLQMNSLKPEDSAVYYCAKAYRPFYSRVQDYDYWGQGTQVTVSS = high polyreactivity

Note down polyreactivity (PSR sort gate) recorded for `QVQLEESAGGIVQAGGSLRFSCAASGSTISAYDIGCYRQEPGKEWELVAAITWIGGNTYYADSVKGRFTISRDTAKNTVYLQMNSLKPEDTEFYYCAAEEVPYDRDMDYWGQGTQVTVSS`
low polyreactivity

Note down polyreactivity (PSR sort gate) recorded for `QVQLVESGGGLVQAGGSLRLSCAASGSTFYPYAMGWYRLAPGKERELVAVISSGGSTNYADSVKGRFTISRDNAKNTVYLQMNSLKPEDTAVYYCAADLAVYYIFLALEFNYWGQGTQVTVSS`
low polyreactivity

Note down polyreactivity (PSR sort gate) recorded for `QVQLVESGGGLVQAGGSLRLSCAASGRIFVTNTMGWYRQAPGKERELVAAIDNSAGSTYYADSVKGRFTISRDNAKNTVYLQMNSLIPEDTAVYYCAADYPPYYAYGYWGQGTQVTVSS`
low polyreactivity

Note down polyreactivity (PSR sort gate) recorded for `QVQLVESGGGLVQAGGSLRLSCAASGGTFYSYAMGWYRQAPGIEREVVAAISRRGGSTYYADSVKGRFTISRDNAKNTVYLLMNSLKPEDTAVYFCNTYIYQVRDDYWGQGTQVTVSS`
high polyreactivity

Note down polyreactivity (PSR sort gate) recorded for `QVQLVESGGGLVQAGGSLRLSCAASGFIFYIYAMGWYRQAPGKERELVAAITSGGSTYYADSVKGRFTISRDNAKNTVYLQMNSLKPEDTAVYFCAAESYYGYDYWGQGTQVTLSS`
low polyreactivity

Note down polyreactivity (PSR sort gate) recorded for `QVQLVESGGGLVQAGGSLRLSCAASGYTFGGYAMGWYRQAPGKERELVAAISGSGVRTYYADSVKGRFTISRDNAKNTVYLQMNSLKPEDTAVYYCAKRVRYPGDRYYYWGQGTQVTVSS`
high polyreactivity
